Measured values drawn from ChEMBL document CHEMBL1127704 for this set.

Listing of recorded pIC50 by entry.
# test system: Bifunctional dihydrofolate reductase-thymidylate synthase (Toxoplasma gondii, UniProt Q07422)
# Sequence (Q07422 whole entry): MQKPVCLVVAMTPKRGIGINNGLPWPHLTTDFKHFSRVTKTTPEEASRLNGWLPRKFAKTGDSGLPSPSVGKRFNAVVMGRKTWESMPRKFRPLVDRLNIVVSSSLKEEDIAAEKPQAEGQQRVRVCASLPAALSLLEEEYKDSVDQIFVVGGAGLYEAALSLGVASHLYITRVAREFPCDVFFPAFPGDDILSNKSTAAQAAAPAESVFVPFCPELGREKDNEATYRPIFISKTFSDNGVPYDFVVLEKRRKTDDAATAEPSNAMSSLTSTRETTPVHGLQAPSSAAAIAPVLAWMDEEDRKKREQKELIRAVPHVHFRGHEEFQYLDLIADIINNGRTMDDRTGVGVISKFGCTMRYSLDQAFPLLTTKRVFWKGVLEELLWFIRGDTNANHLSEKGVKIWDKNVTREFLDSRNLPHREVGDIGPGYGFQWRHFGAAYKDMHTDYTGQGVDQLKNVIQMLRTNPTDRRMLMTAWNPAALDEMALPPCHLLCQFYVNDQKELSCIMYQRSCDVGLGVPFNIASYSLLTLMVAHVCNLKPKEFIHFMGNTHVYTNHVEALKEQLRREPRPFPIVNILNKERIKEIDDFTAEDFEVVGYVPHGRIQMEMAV
Remember the convention: pIC50 equals -log10 of concentration in molar.

Given the entry COc1cc(CN(C)c2ccc3nc(N)nc(N)c3c2Cl)cc(OC)c1OC , report its measured pIC50.
7.80

Given the entry COc1cc(CCNc2ccc3nc(N)nc(N)c3c2Cl)cc(OC)c1OC , report its measured pIC50.
5.59

---

# collection of log10 IC50 values tested on Dihydrofolate reductase (Pneumocystis carinii)
# Sequence (P16184 whole entry): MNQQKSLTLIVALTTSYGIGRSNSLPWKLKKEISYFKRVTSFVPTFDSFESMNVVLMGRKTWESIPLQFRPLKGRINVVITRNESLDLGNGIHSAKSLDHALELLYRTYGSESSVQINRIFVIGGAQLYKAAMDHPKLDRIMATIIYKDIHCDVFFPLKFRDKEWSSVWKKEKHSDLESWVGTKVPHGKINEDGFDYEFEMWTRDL
Hey, these are logged values: log10 of IC50, µM being the unit before logging.

Some solved cases for reference:
• COc1ccc(OC)c(CCNc2ccc3nc(N)nc(N)c3c2Cl)c1 = 1.08
• COc1cc(CNc2ccc3nc(N)nc(N)c3c2Cl)cc(OC)c1OC = -1.48

What is its log10 IC50 for Dihydrofolate reductase (Pneumocystis carinii)? Entry: COc1ccc(OC)c(NCc2ccc3nc(N)nc(N)c3c2Cl)c1
-1.29

What is its log10 IC50 for Dihydrofolate reductase (Pneumocystis carinii)? Entry: COc1cc(CCNc2ccc3nc(N)nc(N)c3c2Cl)cc(OC)c1OC
1.63

What is its log10 IC50 for Dihydrofolate reductase (Pneumocystis carinii)? Entry: COc1ccc(OC)c(CNc2ccc3nc(N)nc(N)c3c2Cl)c1
-1.28

What is its log10 IC50 for Dihydrofolate reductase (Pneumocystis carinii)? Entry: COc1cc(CCCNc2ccc3nc(N)nc(N)c3c2Cl)cc(OC)c1OC
1.98
